# System: SK-MEL-28
# ASSAY_INFO: NCI tumour cell line growth inhibition, 48 h
Activity calls are given as the source filed them. Rule as the data show it: active = GI50 up to about 1.1 µM and inactive = higher.
Outcomes: active, inactive

>>> class_name("CN(C)/N=C1\\C=C2CC[C@H](O[Si](C)(C)C(C)(C)C)[C@@]2(C)CC1")
"inactive"
>>> class_name("O=[N+]([O-])c1ccc2oc(=N/c3ccccc3)/c(=N\\c3ccccc3)[nH]c2c1")
"inactive"
>>> class_name("COc1ccccc1C(=O)c1c(N2CCCCC2)c(=O)c1=O")
"inactive"
>>> class_name("O=C(CCNC(=O)OCc1ccccc1)OCCCNC(=O)OCc1ccccc1")
"inactive"
>>> class_name("CCCC(=O)Nc1cc(/C=C/C(=O)N2C[C@@H]3C[C@]34C2=CC(=O)c2[nH]cc(C)c24)n(C)c1")
"active"

----------
# Test system: DU-145
# ASSAY_INFO: NCI tumour cell line growth inhibition, 48 h
The source made the active and inactive calls. No stated cut-off is given here; in the data, active = GI50 up to about 1.1 µM and inactive = higher.
PARAMETER_MEASURED: GI50

>>> result_value("O=c1ccc2ccc(CBr)cc2o1")
"17.1 µM (inactive)"
>>> result_value("O=C1/C(=C/c2ccc(Cl)cc2)CSC/C1=C\\c1ccc(Cl)cc1")
"5.87 µM (inactive)"
>>> result_value("Oc1ccc2ccccc2c1NCn1nc(CCCCCCCCc2nn(CNc3c(O)ccc4ccccc34)c(=S)o2)oc1=S")
"> 100 µM (inactive)"
>>> result_value("NC(=S)C1=C(N)Oc2c(c(=O)oc3ccccc23)C1c1ccc(Br)cc1 (stereo unspecified)")
"> 100 µM (inactive)"
>>> result_value("CC(C)(C)OC(=O)C1=C(N)N(Cc2ccccc2)C2(C)C=CC(=O)C=C12 (stereo unspecified)")
"4.04 µM (inactive)"
>>> result_value("Brc1ccccc1/C=N\\C12CC3CC(CC(C3)C1)C2")
"> 100 µM (inactive)"
>>> result_value("CCOC(=O)C(NC(=O)c1ccco1)(Nc1nc2ccc(OCC)cc2s1)C(F)(F)F (stereo unspecified)")
"55.3 µM (inactive)"
>>> result_value("CC(=O)c1c(-c2ccccc2)c(-c2ccc(OCCN(C)C)cc2)n2ccccc12")
"16.8 µM (inactive)"
>>> result_value("O=C1C2CC(Cl)C(SSC3CC4C(=O)N(SC(Cl)(Cl)C(Cl)Cl)C(=O)C4CC3Cl)CC2C(=O)N1SC(Cl)(Cl)C(Cl)Cl (stereo unspecified)")
"2.6 µM (inactive)"
>>> result_value("Cc1cc2c([N+](=O)[O-])cc3c(c2o1)C(=O)C=CC3=O")
"7.93 µM (inactive)"
>>> result_value("COc1cc2c(cc1OC)CCc1cc(OC)c(OC)cc1CC2")
"> 100 µM (inactive)"
>>> result_value("COc1ccc(NC(C)=O)cc1N1C(=O)/C(=C\\c2ccccc2)SC1c1cc(OC)c(OC)c(OC)c1 (stereo unspecified)")
"20.4 µM (inactive)"
>>> result_value("c1ccc2c(c1)CCc1c-2n(CCN2CCOCC2)c2ccccc12")
"> 100 µM (inactive)"
>>> result_value("COC(=O)C1=Nc2c(C)nn(-c3ccccc3)c2N=C(c2ccccc2)C1")
"> 10 µM (inactive)"
>>> result_value("CCOc1cc(NC(C)=O)ccc1C(=O)NN1C(=O)CSC1c1ccc(O)c(OC)c1 (stereo unspecified)")
"> 100 µM (inactive)"
>>> result_value("CCOC(=O)c1c(N)nn2c1cc1cccccc12")
"32.1 µM (inactive)"
>>> result_value("CC(C)N1CCN(c2ccc(OCC3COC(Cn4cncn4)(c4ccc(Cl)cc4Cl)O3)cc2)CC1 (stereo unspecified) [TERCONAZOLE]")
"16.3 µM (inactive)"
>>> result_value("Cc1cc2c(c(=O)n1C)SCC2")
"> 100 µM (inactive)"
>>> result_value("Clc1ccc(-c2ccc(-c3nnc(CCc4nnc(-c5ccc(-c6ccc(Cl)cc6)o5)o4)o3)o2)cc1")
"> 100 µM (inactive)"
>>> result_value("COC(OC)[C@@H]1OC[C@H](n2cnc3c(N)ncnc32)[C@H]1O")
"> 100 µM (inactive)"
>>> result_value("CC1CN(c2cc3c(cc2F)c(=O)c(C(=O)O)cn3-c2ccc(N3CCN(C)CC3)cn2)CC(C)N1 (stereo unspecified)")
"> 100 µM (inactive)"

----------
# System: ACHN
# ASSAY_INFO: NCI tumour cell line growth inhibition, 48 h
Activity calls are given as the source filed them. No stated cut-off is given here; in the data, active = GI50 up to about 1.1 µM and inactive = higher.
PARAMETER_MEASURED: GI50

>>> result_value("CC1C=C(OC(=O)c2ccccc2)C(=O)C(n2cc(F)c(=O)[nH]c2=O)O1 (stereo unspecified)")
"59.7 µM (inactive)"
>>> result_value("C=C[C@]1(C)CCC2=C(CCC3C2(C)CCC[C@]3(C)CO)C1 (stereo partly specified)")
"69.2 µM (inactive)"
>>> result_value("CC(C)(C)NC(=O)/C(=C\\Sc1ccccc1)c1ccccc1")
"> 100 µM (inactive)"
>>> result_value("O=C1C2CC(Cl)C(SSC3CC4C(=O)N(SC(Cl)(Cl)C(Cl)Cl)C(=O)C4CC3Cl)CC2C(=O)N1SC(Cl)(Cl)C(Cl)Cl (stereo unspecified)")
"2.23 µM (inactive)"
>>> result_value("CC1=CC2C(O1)C1C(=O)C=CC(=O)C1=CC2[N+](=O)[O-] (stereo unspecified)")
"5.3 µM (inactive)"
>>> result_value("Nc1nc2cc3nc(N)c(N)nc3cc2nc1N")
"> 100 µM (inactive)"
>>> result_value("O=C(/C=C/c1ccc(Cl)cc1)c1ccncc1")
"35.9 µM (inactive)"
>>> result_value("Clc1nc2c(C#Cc3ccccc3)ncnc2n1C1CCCCO1 (stereo unspecified)")
"16.1 µM (inactive)"
>>> result_value("Clc1nc(-[n+]2ccc(-c3ccncc3)cc2)nc(Nc2ccccc2)c1Cl")
"> 100 µM (inactive)"
>>> result_value("CC(=O)c1ccc(-c2ccc(C(C)=O)s2)s1")
"> 100 µM (inactive)"
>>> result_value("N#Cc1c(-c2ccccc2)cc(Nc2ccc(Cl)cc2)n2c1nc1ccccc12")
"3.03 µM (inactive)"

----------
# System: NCI-H226
# ASSAY_INFO: NCI tumour cell line growth inhibition, 48 h
The source made the active and inactive calls. Cut-off read from the data, not from the text of the source: active = GI50 up to about 1.1 µM and inactive = higher.
PARAMETER_MEASURED: GI50

>>> result_value("O=C1/C(=C/c2cccc(Br)c2)CSC/C1=C\\c1cccc(Br)c1")
"3.72 µM (inactive)"
>>> result_value("CC(C)(C)N/N=C(\\C(=O)NC1=C(Cl)C(=O)c2ccccc2C1=O)C1C=CCS1(=O)=O (stereo not given)")
"12.6 µM (inactive)"
>>> result_value("Cc1ccccc1/N=N/c1ccc(/N=N/c2c(O)ccc3cc(S(=O)(=O)O)cc(S(=O)(=O)O)c23)c(C)c1")
"> 100 µM (inactive)"
>>> result_value("COc1ccc(CNC(=O)[C@H](Cc2ccc(O)cn2)NC(C)=O)cc1")
"> 100 µM (inactive)"
>>> result_value("COc1cc2cccc(/N=C\\c3ccccc3Cl)c2cc1OC")
"> 100 µM (inactive)"
>>> result_value("C=CC(C)(C)C(=C)C(=O)Nc1ccccc1I")
"> 100 µM (inactive)"
>>> result_value("Cc1ccc(O)c(C(c2ccc(C(c3cc(C)ccc3O)c3cc(C)ccc3O)cc2)c2cc(C)ccc2O)c1")
"1.86 µM (inactive)"
>>> result_value("O=[N+]([O-])/C(C(Cl)=C(Cl)Cl)=C(\\Nc1ccccc1)n1nnc2ccccc21")
"> 100 µM (inactive)"
>>> result_value("O=c1c2ccccc2[nH]c(=S)n1-c1ccc(Br)cc1")
"> 100 µM (inactive)"
>>> result_value("COc1cc(C(c2c(O)c3ccccc3oc2=O)c2c(O)c3ccccc3oc2=O)cc(Br)c1O")
"21.5 µM (inactive)"
>>> result_value("N#CCCN(c1ccc(/C=C2\\N=C(c3ccc(Cl)cc3)OC2=O)cc1)S(=O)(=O)c1ccccc1")
"96.2 µM (inactive)"
>>> result_value("CC(C)OC(=O)c1ccc(CCC2=CC(=O)C(Br)=CC2=O)cc1")
"19.8 µM (inactive)"
>>> result_value("COC(=O)C(Cc1ccccc1)NC(=O)Cn1ccnc1[N+](=O)[O-] (stereo not given)")
"34 µM (inactive)"
>>> result_value("CC(C)(C)OC(=O)NC(Cc1ccc(OC(C)(C)C)cc1)C(=O)N[C@H]1CCC[C@H]1C(=O)NC(Cc1ccccc1)C(=O)N1CCCC1C(N)=O (stereo not given in full)")
"> 100 µM (inactive)"
>>> result_value("COC(=O)C(Cc1ccc2c(c1)OCO2)(NC(=O)c1ccccc1)P(=O)(OC)OC (stereo not given)")
"> 100 µM (inactive)"
>>> result_value("CC(=O)O[C@H]1CC[C@@]2(C)C(=CC[C@H]3C(CC#N)[C@@](C)(C#N)CCC32)C1 (stereo not given in full)")
"> 100 µM (inactive)"
>>> result_value("O=C1/C(=C2\\Sc3c(ccc(Cl)c3Cl)C2=O)Sc2c1ccc(Cl)c2Cl")
"> 100 µM (inactive)"
>>> result_value("CCSC1=CC2(O)N(CCc3ccc(OC)c(OC)c3)C(=O)CC2(C(=O)OC)CC1=O (stereo not given)")
"> 100 µM (inactive)"
>>> result_value("O=C(/C=C/c1ccccc1)NC1C=Nc2ccc([N+](=O)[O-])cc2NC1=O (stereo not given)")
"> 100 µM (inactive)"
>>> result_value("CC(C)(C)OC(=O)C1=C(N)N(Cc2ccccc2)C2(C)C=CC(=O)C=C12 (stereo not given)")
"12.9 µM (inactive)"
>>> result_value("NC(N)NCCCc1cn2c(n1)C1CCCN1C(=O)C2Cc1ccccc1 (stereo not given)")
"> 100 µM (inactive)"
>>> result_value("C/C(CC(=O)Nc1ccccc1)=N\\NC(N)=S")
"> 100 µM (inactive)"
>>> result_value("COc1ccc2c(c1)N(CCC1CCCCN1C)c1ccccc1S2 (stereo not given)")
"23.6 µM (inactive)"
>>> result_value("O/N=C\\c1cc(O)c(O)c(/C=N/O)c1")
"32.9 µM (inactive)"
>>> result_value("O=C1C(Cl)C2(CC(/C=C/c3ccccc3Cl)=NN2c2cccc(S(=O)(=O)O)c2)N1c1nc2ccccc2s1 (stereo not given)")
"30.2 µM (inactive)"
>>> result_value("Cc1cccc(C)c1NC(=O)CCc1nnc2s/c(=C\\c3ccc(Cl)cc3)c(=O)n12")
"97.5 µM (inactive)"
>>> result_value("C=C=C(Sc1ccccc1)C(C)(C)O")
"> 100 µM (inactive)"
>>> result_value("O=[N+]([O-])C(=C1c2ccccc2-c2ccccc21)[N+](=O)[O-]")
"69.2 µM (inactive)"
>>> result_value("COc1cc(C=C2C(C)=NN(c3cccc(Cl)c3)C23SCC(=O)N3c2nc3ccccc3s2)ccc1O (stereo not given)")
"35.1 µM (inactive)"
>>> result_value("CCOC(=O)COc1ccc2c(C)cc(=O)oc2c1")
"> 100 µM (inactive)"
>>> result_value("O=C1/C(=C/c2ccc(Cl)cc2)CSC/C1=C\\c1ccc(Cl)cc1")
"2.2 µM (inactive)"
>>> result_value("COc1cc2c(cc1OC)C1Cc3cc(OC)c(OC)cc3N1CC2 (stereo not given)")
"20.3 µM (inactive)"
>>> result_value("CCOC(=O)N1N=NC2C3OC(C[C@@]3(C#N)OC(C)=O)[C@H]21 (stereo not given in full)")
"> 100 µM (inactive)"
>>> result_value("COc1ccc2nc(-n3c(/C=C/c4ccccc4O)nc4ccccc4c3=O)sc2c1")
"36 µM (inactive)"
>>> result_value("CCCC(CCN)(CCN)[N+](=O)[O-]")
"> 100 µM (inactive)"
>>> result_value("O=C(CC1(O)C(=O)Nc2ccccc21)c1ccccc1Cl (stereo not given)")
"> 100 µM (inactive)"
>>> result_value("CN(C)/N=C1\\C=C2CC[C@H](O[Si](C)(C)C(C)(C)C)[C@@]2(C)CC1")
"20.3 µM (inactive)"
>>> result_value("Nc1nc(=O)n(C2CC(O)C(CO)O2)c2nc(-c3ccc(-c4ccccc4)cc3)cnc12 (stereo not given)")
"25.6 µM (inactive)"
>>> result_value("COC1C=COC2(C)Oc3c(C)c(O)c4c(O)c(c(C5SCCS5)c(O)c4c3C2=O)NC(=O)/C(C)=C\\C=CC(C)C(O)C(C)C(O)C(C)C(OC(C)=O)C1C (stereo not given)")
"9.04 µM (inactive)"
>>> result_value("CC1=CC2C(O1)C1C(=O)C=CC(=O)C1=CC2[N+](=O)[O-] (stereo not given)")
"> 100 µM (inactive)"
